FYI, the data here is from paper PMC7497161.

SUBJECT_OF_TEST: circularly permuted Caspase-2 double mutant Asp323Thr/His226Ala (human) (UniProt P42575)
*1 amine or outer side, *2 acyl side, *3 side chain or, on linkers, in order; H or OH if unused. Where no end group is shown, it is not given here. [ ]: non-standard residue; d: D form. Dap(Dnp) = diaminopropionic acid carrying a 2,4-dinitrophenyl quencher, O=C([C@H](CNc1ccc([N+](=O)[O-])cc1[N+](=O)[O-])N[*:1])[*:2]; 2Abz = Nc1ccccc1C(=O)O
EXPERIMENTAL_READOUT: K M (Michaelis-Menten kinetics, FRET peptide-based cleavage assay, 1 μM enzyme) (µM)

In the examples that follow, each entry is paired with its recorded K M (Michaelis-Menten kinetics, FRET peptide-based cleavage assay, 1 μM enzyme).
{"BINDER": "[2Abz]VDVADPA-{Dap(Dnp)} [Abz-VDVAD-PA-Dap(Dnp)]", "UNIT_INFO": "µM", "VALUE_OBSERVED": 43}
{"BINDER": "[2Abz]VDVADAA-{Dap(Dnp)} [Abz-VDVAD-AA-Dap(Dnp)]", "UNIT_INFO": "µM", "VALUE_OBSERVED": 57}
{"BINDER": "[2Abz]VDVADVA-{Dap(Dnp)} [Abz-VDVAD-VA-Dap(Dnp)]", "UNIT_INFO": "µM", "VALUE_OBSERVED": 77}
{"BINDER": "[2Abz]VDVADTA-{Dap(Dnp)} [Abz-VDVAD-TA-Dap(Dnp)]", "UNIT_INFO": "µM", "VALUE_OBSERVED": 82}

(A) [2Abz]VDVADGA-{Dap(Dnp)} [Abz-VDVAD-GA-Dap(Dnp)]
(B) [2Abz]VDVADLA-{Dap(Dnp)} [Abz-VDVAD-LA-Dap(Dnp)]
In the pair A and B , the larger recorded K M (Michaelis-Menten kinetics, FRET peptide-based cleavage assay, 1 μM enzyme) belongs to which? State the label of the item chosen.
B
